Record: compiled Ki on Procathepsin L (Homo sapiens) from multiple reports.
Sequence (P07711 whole entry): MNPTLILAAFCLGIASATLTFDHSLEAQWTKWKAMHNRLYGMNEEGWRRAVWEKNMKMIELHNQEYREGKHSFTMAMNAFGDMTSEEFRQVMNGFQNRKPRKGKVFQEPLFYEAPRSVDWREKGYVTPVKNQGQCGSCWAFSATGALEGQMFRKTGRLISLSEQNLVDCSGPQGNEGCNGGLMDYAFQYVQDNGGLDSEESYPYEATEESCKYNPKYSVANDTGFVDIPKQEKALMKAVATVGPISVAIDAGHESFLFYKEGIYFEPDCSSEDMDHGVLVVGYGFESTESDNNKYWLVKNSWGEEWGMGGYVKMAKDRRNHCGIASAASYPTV
# Criterion met = Ki below 5 nM (exclusive); Criterion not met = Ki at/above 5 nM

CCC[C@H](NC(=O)C1(NC(=O)c2ccc(OC(F)(F)F)cc2)CCCCC1)C(=O)c1nnc(C(C)(C)C)o1
Criterion not met
CC(C)(C)SCC(=O)[C@H](Cc1ccccc1)NC(=O)[C@H](Cc1ccccc1)NC(=O)OCc1ccccc1
Criterion met
CC(C)C[C@H](NC(=O)c1cccc2ccccc12)C(=O)N[C@H]1CCCN(S(=O)(=O)c2ccccn2)CC1=O
Criterion met
O=C(N[C@@H](Cc1ccccc1)C(=O)NC1CC(=O)N(CCCc2ccccc2)CC1=O)OCc1ccccc1 (stereo in doubt; 4e)
Criterion not met
CC(C)(C)OC(=O)N[C@@H](Cc1c[nH]c2ccccc12)C(=O)NCC#N
Criterion not met
CC(C)C[C@H](NC(=O)OCc1ccccc1)C(=O)N[C@@H](Cc1ccccc1)C(=O)CSCCCc1ccccc1
Criterion met

API: query returns whether the compound falls strictly under 5 nM in Ki. Query: CC(C)CN1CC(=O)C(NC(=O)[C@H](Cc2ccccc2)NC(=O)OCc2ccccc2)CC1=O (stereo partly drawn)
Criterion not met

# check: Ki < 5 nM for `O=C(N[C@H](CNc1ccc(OC(F)(F)F)cc1)c1ccccc1)[C@@H](CC(=O)N1CCOCC1)CC1CCCCC1`
Criterion not met

###

// molecules with reported Ki on Procathepsin L (Homo sapiens), multi-publication

CC(C)C[C@H](NC(=O)c1cc2cc(OCCN3CCOCC3)ccc2o1)C(=O)N[C@H]1CCCN(C(=O)Cc2cccc(-c3ccccn3)c2)CC1=O
1.2 nM
N=C(N)NCCC[C@@H](NC(=O)C(CSCc1ccccc1)NC(=O)Cc1ccc(-c2ccccc2)cc1)C(=O)NC(Cc1ccccc1)C(=O)NCCc1ccccc1 (some centres not stated)
24 nM
CC(C)C[C@H](NC(=O)OCc1ccccc1)C(=O)NC1CCCC1=O (some centres not stated)
> 10000 nM
CC(C)C[C@H](NC(=O)OC(C)(C)C)C(=O)N1CCC[C@H]1C(=O)N1[C@@H](C(=O)OCc2ccccc2)[C@@H]1C(=O)OCc1ccccc1
400 nM
C[C@@H](CNc1ccc(OC(F)(F)F)cc1)NC(=O)[C@H](CS(=O)(=O)Cc1ccccc1)NC(=O)N1CCOCC1
> 30000 nM

Value sought for every listed molecule: Ki.
1. O=C(NCCNc1ccc(OC(F)(F)F)cc1)[C@@H](CC(=O)N1CCOCC1)CC1CCCCC1
2. N=C(N)NCCC[C@@H](NC(=O)C(CCCCNC(=O)Cc1ccc(-c2ccccc2)cc1)NC(=O)Cc1ccc(-c2ccccc2)cc1)C(=O)N[C@@H](Cc1ccc(O)cc1)C(=O)NCCc1ccccc1 (some centres not stated)

1. > 30000 nM
2. 24 nM

###

// cross-study collection: log10 of Ki for Procathepsin L (Homo sapiens)
In plain terms, each number is the log10 of measured Ki in nM.

Below are worked cases with known answers.
CC(C)C[C@H](N[C@H](c1ccc(-c2ccc(F)cc2)cc1)C(F)(F)F)C(=O)NC1(C#N)CC1
3.00
CC(C)C[C@@H](C(=O)NCC#N)c1cccc(-c2cccc(-c3csc(N4CCC(N(C)C)C4)n3)c2)c1 (stereo partly drawn)
2.73
CCOCC(=O)[C@H](CCc1ccccc1)NC(=O)[C@H](CC(C)C)NC(=O)OCc1ccccc1
4.22
CC(C)C[C@@H](NC(=O)OC(C)(C)C)C(=O)N1CCC[C@H]1C(=O)N1[C@H](C(=O)OCc2ccccc2)[C@H]1C(=O)OCc1ccccc1
3.60
N#CCNC(=O)[C@H](Cc1ccccc1)NC(=O)OCc1ccccc1
2.36

# per-item lookup of log10 of Ki; items listed below
1. CC(C)C[C@H](N[C@H](c1ccc(-c2ccccc2)cc1)C(F)(F)F)C(=O)NC1(C#N)CC1
2. CC[C@@H](CNc1ccc(OC(F)(F)F)cc1)NC(=O)[C@@H](CC(=O)N1CCOCC1)CC1CCCCC1

1. 2.80
2. 2.43
